System: H9 (T-Cell Non-Hodgkin's Lymphoma)
Experiment Notes: Bliss excess, mean over the matrix (fraction); higher = more synergy;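 further: after 72 h of two-drug dosing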
Reported Metric: Bliss excess
Form rule: numeric answer, no unit written next to it.

Lookup: Recorded Bliss excess for CCc1c2c(nc3ccc(O)cc13)-c1cc3c(c(=O)n1C2)COC(=O)[C@]3(O)CC [SN-38] + CN(C)CCCOc1ccc(-c2ccc3ncc4c(c3c2)n(C2CCOCC2)c(=O)n4C)cn1 [AZD0156] (first compound max 0.3 µM, 7x7, partner max 1 µM) with H9 (T-Cell Non-Hodgkin's Lymphoma), please?
Found: 0.116

Lookup: Now the compound CC1(C)CCC(CN2CCN(c3ccc(C(=O)NS(=O)(=O)c4ccc(NCC5CCOCC5)c([N+](=O)[O-])c4)c(Oc4cnc5[nH]ccc5c4)c3)CC2)=C(c2ccc(Cl)cc2)C1 [Venetoclax] + CCN(CCO)CCCOc1ccc2c(Nc3cc(CC(=O)Nc4cccc(F)c4)[nH]n3)ncnc2c1 [AZD2811] (first compound max 1 µM, 7x7, partner max 1 µM)
Found: -0.0616

Lookup: Now the compound COc1nnc2ccc(N3CCC(c4ccc(OCCN5CCN(C)C(=O)[C@H]5C)cc4)CC3)nn12 [AZD5153] + CCN(CCO)CCCOc1ccc2c(Nc3cc(CC(=O)Nc4cccc(F)c4)[nH]n3)ncnc2c1 [AZD2811] (first compound max 1 µM, 7x7, partner max 1 µM)
Found: -0.0163

Lookup: Now the compound CN(CCO)CC[C@H](CSc1ccccc1)Nc1ccc(S(=O)(=O)NC(=O)c2ccc(N3CCC([C@@H](O)c4ccccc4-c4ccc(Cl)cc4)CC3)cc2)cc1S(=O)(=O)C(F)(F)F [AZD4320] + C=CCn1c(=O)c2cnc(Nc3ccc(N4CCN(C)CC4)cc3)nc2n1-c1cccc(C(C)(C)O)n1 [AZD1775] (first compound max 1 µM, partner max 1 µM)
Found: 0.0178

Lookup: Now the compound Cn1cnc2c(F)c(Nc3ccc(Br)cc3Cl)c(C(=O)NOCCO)cc21 [Selumetinib] + CC(C)n1c(=O)n(C)c2cnc3cc(F)c(-c4ccc(OCCCN5CCCCC5)nc4)cc3c21 [AZD1390] (first compound max 10 µM, 7x7, partner max 0.3 µM)
Found: -0.0033

Lookup: Now the compound CC1(C)CCC(CN2CCN(c3ccc(C(=O)NS(=O)(=O)c4ccc(NCC5CCOCC5)c([N+](=O)[O-])c4)c(Oc4cnc5[nH]ccc5c4)c3)CC2)=C(c2ccc(Cl)cc2)C1 [Venetoclax] + C[C@@H]1COCCN1C2=NC(=NC(=C2)C3(CC3)[S@](=N)(=O)C)C4=C5C=CNC5=NC=C4 [AZD6738] (first compound max 1 µM, 7x7, partner max 10 µM)
Found: 0.0113

Lookup: Now the compound COc1cccc(OCCCN)c1-c1cc(Nc2cnc(C#N)cn2)n[nH]1 [Prexasertib] + CN(C)CCCOc1ccc(-c2ccc3ncc4c(c3c2)n(C2CCOCC2)c(=O)n4C)cn1 [AZD0156] (first compound max 1 µM, 7x7, partner max 1 µM)
Found: 0.0022

Numbers sourced from the supplement of paper PMC11061612.
